# Lookup of reported half-life at 100 mcg/mL keyed by entry
Assay: Hydrolytic stability in buffered aqueous solutions (HPLC)
Type: physicochemical
Conditions: pH = 8, phosphate based buffer, 40° C., read-out: t1/2 (hr) at 40° C. (converted)
Report only the number, with the unit h understood.

Nc1nc2c(ncn2COCCOC(=O)C2(N)CC2)c(=O)[nH]1.O=C(O)C(F)(F)F [Example 1] ... 90.1

Proceed to the following item.
# input Param item = CC(C)[C@H](N)C(=O)OCCOCn1cnc2c(=O)[nH]c(N)nc21 [valacyclovir] ; retrieve measured half-life at 100 mcg/mL.
# output 7.8

----------
Test: Hydrolytic stability in buffered aqueous solutions (HPLC)
Format: physicochemical
Conditions: pH = 4, phosphate based buffer, 40° C., read-out: t1/2 (hr) at 40° C. (converted)
# Lookup of reported half-life at 100 mcg/mL keyed by entry

CC(C)[C@H](N)C(=O)OCCOCn1cnc2c(=O)[nH]c(N)nc21 ... > 300 h

Proceed to the following item.
# input Param item = Nc1nc2c(ncn2COCCOC(=O)C2(N)CC2)c(=O)[nH]1.O=C(O)C(F)(F)F ; retrieve measured half-life at 100 mcg/mL.
# output > 300 h

----------
Test: Hydrolytic stability in buffered aqueous solutions (HPLC)
Type: physicochemical
Conditions: pH = 2, phosphate based buffer, 40° C., read-out: t1/2 (hr) at 40° C. (converted)
Description: Hydrolytic stability of valacyclovir and 1-amino-cyclopropanecarboxylic acid 2-(2-amino-6-oxo-1,6-dihydro-purin-9-ylmethoxy)-ethyl ester trifluoroacetic acid salt Test samples of valacyclovir and 1-amino-cyclopropanecarboxylic acid 2-(2-amino-6-oxo-1,6-dihydro-purin-9-ylmethoxy)-ethyl ester trifluoroacetic acid salt (Example 1) are dissolved in buffered solutions of known pH at a concentration of 100 mcg/mL. […] Stability is conveniently assessed using a semi-automated HPLC technique. […]
# Lookup of reported half-life at 100 mcg/mL keyed by entry

Nc1nc2c(ncn2COCCOC(=O)C2(N)CC2)c(=O)[nH]1.O=C(O)C(F)(F)F ... > 300 h

Proceed to the following item.
# input Param item = CC(C)[C@H](N)C(=O)OCCOCn1cnc2c(=O)[nH]c(N)nc21 ; retrieve measured half-life at 100 mcg/mL.
# output > 300 h

----------
Experiment: Hydrolytic stability in buffered aqueous solutions (HPLC)
Assay type: physicochemical
Details: pH = 6, phosphate based buffer, 40° C., read-out: t1/2 (hr) at 40° C. (converted)
MEASUREMENT_KIND: half-life at 100 mcg/mL (h)
Report only the number, with the unit h understood.

# input Param item = CC(C)[C@H](N)C(=O)OCCOCn1cnc2c(=O)[nH]c(N)nc21 [valacyclovir] ; retrieve measured half-life at 100 mcg/mL.
# output 69.7

----------
Experiment: Hydrolytic stability in buffered aqueous solutions (HPLC)
Assay type: physicochemical
Details: pH = 10, phosphate based buffer, 40° C., read-out: t1/2 (hr) at 40° C. (converted)
MEASUREMENT_KIND: half-life at 100 mcg/mL (h)
Report only the number, with the unit h understood.

Nc1nc2c(ncn2COCCOC(=O)C2(N)CC2)c(=O)[nH]1.O=C(O)C(F)(F)F ... 23.8

Proceed to the following item.
# input Param item = CC(C)[C@H](N)C(=O)OCCOCn1cnc2c(=O)[nH]c(N)nc21 ; retrieve measured half-life at 100 mcg/mL.
# output 6.8
